# measurement target: Concanavalin-A (Canavalia ensiformis)
# protocol notes: ConA small-molecule binders, primary screen, artefact control for SMM control protein annotation, biochemical, small-molecule microarray, Alexa647 label, 635 nm (AID 1127);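 also: z combines 667 nm emission intensity with signal-to-noise across three replicate slides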
# run parameters: ConA-A647 binding fluorescence, higher = more signal

molecule: CN(C)C(=O)[C@@]1(Cc2ccccc2)N=C(c2ccc(OCCCO)cc2)O[C@H]1c1ccccc1CN=[N+]=[N-]
composite z-score: 1.14

molecule: CC(CCN1CCc2nc(-c3ccccc3)c(-c3ccccc3)cc2C1)=NOC(C)CN1CCCCc2nc(C)c(C)cc21 (stereo not drawn)
composite z-score: 1.05

molecule: Cc1cc(C)c(-c2cc([C@H](C)ON=C3[C@H]4CCn5c(=O)n(-c6ccccc6)c(=O)n5[C@H]4[C@H](O)[C@@H]4O[C@H]34)on2)c(C)c1
composite z-score: 0.706

molecule: NC(=O)NCC#Cc1ccc2c(c1)[C@]1(C(=O)N2)[C@H](c2ccc(O)cc2)N2[C@H](c3ccccc3)[C@H](c3ccccc3)OC(=O)[C@H]2[C@@H]1C(=O)N1CCCCCCC1
composite z-score: 0.848

molecule: c1ccc(C2NCCc3c2[nH]c2ccccc32)cc1 (stereo not drawn)
composite z-score: -0.082

molecule: CO[C@@H]1COC(=O)CC=C[C@@H](C)[C@@H]2C=C[C@@H](O)[C@@H](COC(=O)CC=C[C@H]1C)O2
composite z-score: -0.363

molecule: CC(C)NC(=O)[C@@]1(c2ccc([N+](=O)[O-])cc2)CC(=O)N(CC23CC4CC(CC(C4)C2)C3)[C@@H]1c1ccc(CO)cc1I
composite z-score: 0.93

molecule: CCOC(=O)NN=C1C[C@@H](O)[C@@H](O)[C@@H]2[C@@H]3C(=O)N(CC)C(=O)[C@@H]3CC[C@@H]12
composite z-score: 0.481
